Kindly state pEC50 for each of the entries shown.
target: SST2 (Homo sapiens)
Construct: host or cells: PathHunter CHO-K1 SST2 cells
assay-details: PathHunter CHO-K1 SST2 internalization assay
Format: cell-based
assay-context: PathHunter CHO-K1 SST2, 90 min; read-out: Internalization EC50
Answers are plain numbers, as −log10 of the molar value.

{"molecule": "CC[C@H](C)[C@@H]([C@@H](CC(=O)N1CCC[C@H]1[C@H](OC)[C@@H](C)C(=O)N[C@H](C)[C@@H](O)c1ccccc1)OC)N(C)C(=O)[C@@H](NC(=O)[C@H](C(C)C)N(C)C(=O)OCc1ccc(NC(=O)[C@H](CCCNC(N)=O)NC(=O)[C@@H](NC(=O)[C@H](CCC(=O)O)NC(=O)CCOCCOCCOCCOCCC(=O)NCCNc2ncc(-c3cc(C)cc(F)c3)c(N3CCC(N)CC3)c2-c2nc3ccc(Cl)cc3[nH]2)C(C)C)c(O[C@@H]2O[C@H](C(=O)O)[C@@H](O)[C@H](O)[C@H]2O)c1)C(C)C", "pEC50": 8.16}
{"molecule": "CC[C@H](C)[C@@H]([C@@H](CC(=O)N1CCC[C@H]1[C@H](OC)[C@@H](C)C(=O)N[C@H](C)[C@@H](O)c1ccccc1)OC)N(C)C(=O)[C@@H](NC(=O)[C@H](C(C)C)N(C)C(=O)OCc1ccc(NC(=O)[C@H](C)NC(=O)[C@@H](NC(=O)CCOCCC(=O)N[C@@H](CS(=O)(=O)O)C(=O)NCCNc2ncc(-c3cc(C)cc(F)c3)c(N3CCC(N)CC3)c2-c2nc3ccc(Cl)cc3[nH]2)C(C)C)c(O[C@@H]2O[C@H](CO)[C@@H](O)[C@H](O)[C@H]2O)c1)C(C)C", "pEC50": 7.82}
{"molecule": "CC[C@H](C)[C@@H]([C@@H](CC(=O)N1CCC[C@H]1[C@H](OC)[C@@H](C)C(=O)N[C@H](C)[C@@H](O)c1ccccc1)OC)N(C)C(=O)[C@@H](NC(=O)[C@H](C(C)C)N(C)C(=O)OCc1ccc(NC(=O)[C@H](CCCNC(N)=O)NC(=O)[C@@H](NC(=O)CCC(=O)NCCNc2ncc(-c3cc(C)cc(F)c3)c(N3CCC(N)CC3)c2-c2nc3ccc(Cl)cc3[nH]2)C(C)C)c(O[C@@H]2O[C@H](C(=O)O)[C@@H](O)[C@H](O)[C@H]2O)c1)C(C)C", "pEC50": 8.05}

Give one value of pEC50 per listed molecule.
1. COc1cc2cc(c1Cl)N(C)C(=O)CC(OC(=O)[C@@H](C)N(C)C(=O)CCSSCCNC(=O)CN1CCN(CC(=O)O)CCN(CC(=O)NCCNc3ncc(-c4cc(C)cc(F)c4)c(N4CCC(N)CC4)c3-c3nc4ccc(Cl)cc4[nH]3)CC1)[C@]1(C)OC1[C@@H](C)C1C[C@@](O)(NC(=O)O1)[C@H](OC)/C=C/C=C(\C)C2 (stereo partly shown)
2. CC[C@H](C)[C@@H]([C@@H](CC(=O)N1CCC[C@H]1[C@H](OC)[C@@H](C)C(=O)N[C@H](C)[C@@H](O)c1ccccc1)OC)N(C)C(=O)[C@@H](NC(=O)[C@H](C(C)C)N(C)C(=O)OCc1ccc(NC(=O)[C@H](CCCNC(N)=O)NC(=O)[C@@H](NC(=O)CCCCC(=O)NCCNc2ncc(-c3cc(C)cc(F)c3)c(N3CCC(N)CC3)c2-c2nc3ccc(Cl)cc3[nH]2)C(C)C)c(O[C@@H]2O[C@H](C(=O)O)[C@@H](O)[C@H](O)[C@H]2O)c1)C(C)C [Compound 133]
3. CC[C@H](C)[C@@H]([C@@H](CC(=O)N1CCC[C@H]1[C@H](OC)[C@@H](C)C(=O)N[C@H](C)[C@@H](O)c1ccccc1)OC)N(C)C(=O)[C@@H](NC(=O)[C@H](C(C)C)N(C)C(=O)OCc1ccc(NC(=O)[C@H](CCCNC(N)=O)NC(=O)[C@@H](NC(=O)[C@H](CS(=O)(=O)O)NC(=O)CCOCCOCCOCCOCCC(=O)NCCNc2ncc(-c3cc(C)cc(F)c3)c(N3CCC(N)CC3)c2-c2nc3ccc(Cl)cc3[nH]2)C(C)C)cc1)C(C)C
4. COc1cc2cc(c1Cl)N(C)C(=O)CC(OC(=O)[C@@H](C)N(C)C(=O)CCSSCCOCCOCCOCCOCCOCCOCCOCCOCCC(=O)NCCNc1ncc(-c3cc(C)cc(F)c3)c(N3CCC(N)CC3)c1-c1nc3ccc(Cl)cc3[nH]1)[C@]1(C)OC1[C@@H](C)C1C[C@@](O)(NC(=O)O1)[C@H](OC)/C=C/C=C(\C)C2 (stereo partly shown)
5. CCC(C)C(C(CC(=O)N1CCCC1C(OC)C(C)C(=O)NC(C)C(O)c1ccccc1)OC)N(C)C(=O)C(NC(=O)C(C(C)C)N(C)C(=O)OCc1ccc(NC(=O)[C@H](CCCNC(N)=O)NC(=O)[C@@H](NC(=O)CCOCCOCCOCCOCCOCCOCCOCCOCCC(=O)NCCNc2ncc(-c3cc(C)cc(F)c3)c(N3CCC(N)CC3)c2-c2nc3ccc(Cl)cc3[nH]2)C(C)C)cc1)C(C)C (stereo in doubt)
6. COc1cc2cc(c1Cl)N(C)C(=O)CC(OC(=O)[C@@H](C)N(C)C(=O)CCSSCCC(=O)NCCNc1ncc(-c3cc(C)cc(F)c3)c(N3CCC(N)CC3)c1-c1nc3ccc(C(N)=O)cc3[nH]1)[C@]1(C)OC1[C@@H](C)C1C[C@@](O)(NC(=O)O1)[C@H](OC)/C=C/C=C(\C)C2 (stereo partly shown)

Output line:
1: 8.11; 2: 8.22; 3: 7.68; 4: 7.59; 5: 7.56; 6: 6.61

Form field pEC50, entry CCC(C)C(C(CC(=O)N1CCCC1C(OC)C(C)C(=O)NC(C)C(O)c1ccccc1)OC)N(C)C(=O)C(NC(=O)C(C(C)C)N(C)C(=O)OCc1ccc(NC(=O)[C@H](CCCNC(N)=O)NC(=O)[C@@H](NC(=O)CCOCCOCCOCCOCCC(=O)NCCNc2ncc(-c3cc(C)cc(F)c3)c(N3CCC(N)CC3)c2-c2nc3ccc(Cl)cc3[nH]2)C(C)C)cc1)C(C)C (stereo in doubt) : 7.57

====

target: human somatostatin receptor subtype 2 (Homo sapiens, UniProt P30874)
Construct: expressed in transfected cells
Sequence (P30874 whole entry): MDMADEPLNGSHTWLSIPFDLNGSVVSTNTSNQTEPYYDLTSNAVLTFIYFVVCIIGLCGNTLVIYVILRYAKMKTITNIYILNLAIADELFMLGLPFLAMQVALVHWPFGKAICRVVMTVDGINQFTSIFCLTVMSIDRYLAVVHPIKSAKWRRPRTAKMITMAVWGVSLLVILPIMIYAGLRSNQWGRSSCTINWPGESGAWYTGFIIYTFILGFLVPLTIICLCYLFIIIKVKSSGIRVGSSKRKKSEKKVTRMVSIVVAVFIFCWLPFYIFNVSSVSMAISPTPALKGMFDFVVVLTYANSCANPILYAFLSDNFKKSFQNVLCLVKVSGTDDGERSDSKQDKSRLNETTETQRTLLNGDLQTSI
assay-details: Functional cAMP assay for SSTR2 agonists (HTRF) in CHO-K1 cells
Type: cell-based
assay-context: CHO-K1 cells stably expressing human SST2, 20 min; read-out: hSST2 cAMP Avg EC50
measure-name: pEC50
Give bare numbers, as −log10 of the molar value.

{"compound": "CC[C@H](C)[C@@H]([C@@H](CC(=O)N1CCC[C@H]1[C@H](OC)[C@@H](C)C(=O)N[C@H](C)[C@@H](O)c1ccccc1)OC)N(C)C(=O)[C@@H](NC(=O)[C@H](C(C)C)N(C)C(=O)OCc1ccc(NC(=O)[C@H](CCCNC(N)=O)NC(=O)[C@@H](NC(=O)CCOCCNCCNc2ncc(-c3cc(C)cc(F)c3)c(N3CCC(N)CC3)c2-c2nc3ccc(Cl)cc3[nH]2)C(C)C)c(O[C@@H]2O[C@H](C(=O)O)[C@@H](O)[C@H](O)[C@H]2O)c1)C(C)C [Compound 128]", "numeric-value": 9.74}

As a next step, examine the compound that follows.
Query CC[C@H](C)[C@@H]([C@@H](CC(=O)N1CCC[C@H]1[C@H](OC)[C@@H](C)C(=O)N[C@H](C)[C@@H](O)c1ccccc1)OC)N(C)C(=O)[C@@H](NC(=O)[C@H](C(C)C)N(C)C(=O)OCc1ccc(NC(=O)[C@H](CCCNC(N)=O)NC(=O)[C@@H](NC(=O)[C@H](CCC(=O)O)NC(=O)CCOCCC(=O)NCCNc2ncc(-c3cc(C)cc(F)c3)c(N3CCC(N)CC3)c2-c2nc3ccc(Cl)cc3[nH]2)C(C)C)cc1C(=O)NC)C(C)C [Compound 51] yields pEC50 of 9.66

====

target: SST2 (Homo sapiens)
Construct: host or cells: PathHunter CHO-K1 SST2 cells
assay-details: PathHunter CHO-K1 SST2 internalization assay
Format: cell-based
assay-context: PathHunter CHO-K1 SST2, 90 min; read-out: Internalization EC50
measure-name: pEC50
Numbers only, as −log10 of the molar value.

{"chemical-structure": "CC[C@H](C)[C@@H]([C@@H](CC(=O)N1CCC[C@H]1[C@H](OC)[C@@H](C)C(=O)N[C@H](C)[C@@H](O)c1ccccc1)OC)N(C)C(=O)[C@@H](NC(=O)[C@H](C(C)C)N(C)C(=O)OCc1ccc(NC(=O)[C@H](CCCNC(N)=O)NC(=O)[C@@H](NC(=O)CCCC(=O)N(C)CC(=O)N(C)CC(=O)N(C)CC(=O)NCCNc2ncc(-c3cc(C)cc(F)c3)c(N3CCC(N)CC3)c2-c2nc3ccc(Cl)cc3[nH]2)C(C)C)c(O[C@@H]2O[C@H](C(=O)O)[C@@H](O)[C@H](O)[C@H]2O)c1)C(C)C", "pEC50": 8.36}

Moving on to the next molecule.
get_value(item= CC[C@H](C)[C@@H]([C@@H](CC(=O)N1CCC[C@H]1[C@H](OC)[C@@H](C)C(=O)N[C@H](C)[C@@H](O)c1ccccc1)OC)N(C)C(=O)[C@@H](NC(=O)[C@H](C(C)C)N(C)C(=O)OCc1ccc(NC(=O)[C@H](CCCNC(N)=O)NC(=O)[C@@H](NC(=O)CCOCCC(=O)N[C@@H](CS(=O)(=O)O)C(=O)NCCNc2ncc(-c3cc(C)cc(F)c3)c(N3CCC(N)CC3)c2-c2nc3ccc(Cl)cc3[nH]2)C(C)C)cc1)C(C)C , readout=pEC50) returns 7.77
